systemUnderTest: IL-17A/A (Homo sapiens, UniProt Q16552)
procedureDetails: IL-17A/A HEK-Blue cell assay
conditionParameters: HEK-Blue IL-17A reporter cell line (HEK 293), IL-17A/A stimulation, 20 hours incubation, SEAP read at A630
pIC50: −log10 of the molar value.
experimentalEndpoint: pIC50

Challenge: # query: pIC50 | item CC(C)(F)c1nocc1C(=O)N[C@H](c1cn2nc(CC3C[C@@H](C(F)(F)F)CNC3=O)ccc2n1)C1CCC(F)(F)CC1 (stereo partly drawn) | system: IL-17A/A (Homo sapiens, UniProt Q16552)
Response given: 6.00 to 7.00

Challenge: Do the same for CC(C)n1nncc1C(=O)N[C@H](c1cn2nc(CC3C[C@@H](C(F)(F)F)CNC3=O)ccc2n1)[C@H]1CC[C@H](C)CC1 (stereo partly drawn) please
Response given: 6.00 to 7.00

Challenge: Now try CCn1nccc1C(=O)N[C@H](c1cn2nc(CC3CC(C(F)(F)F)CNC3=O)ccc2n1)C1CCCCCC1 (single isomer, unassigned) [Compound 195] .
Response given: < 6.00

Challenge: Consider next the compound CCn1nccc1C(=O)N[C@H](c1cn2nc(CC3CC(CC(F)(F)F)CNC3=O)ccc2n1)C1CCC(F)(F)CC1 (single isomer, unassigned) [Compound 65] in the same way.
Response given: 6.00 to 7.00

Challenge: What do you get for CCn1nccc1C(=O)NC(c1cn2nc(CC3CC(C)CNC3=O)ccc2n1)C1CCC(C)CC1 (single isomer, unassigned) [Compound 49] ?
Response given: 6.00 to 7.00

Challenge: Consider next the compound CCn1nccc1C(=O)N[C@H](c1cn2nc(CC3C[C@@H](C(F)(F)F)CNC3=O)ccc2n1)C1CCC(F)(F)CC1 (stereo partly drawn) [Compound 95] in the same way.
Response given: 6.00 to 7.00

###

systemUnderTest: IL-17A/A (Homo sapiens, UniProt Q16552)
procedureDetails: IL-17A/A HEK-Blue cell assay
conditionParameters: HEK-Blue IL-17A reporter cell line (HEK 293), IL-17A/A stimulation, 20 hours incubation, SEAP read at A630
I'd appreciate it if you could supply IC50 values for the items below.

Challenge: Value wanted: IC50 (IL-17A/A (Homo sapiens, UniProt Q16552)) of entry O=C(N[C@H](c1cn2nc(CC3C[C@@H](C(F)(F)F)CNC3=O)ccc2n1)C1CCC(F)(F)CC1)c1conc1C1CC1(F)F (single isomer, unassigned) [Compound 127]
Response given: < 0.1 µM

Challenge: Param item: CCn1nccc1C(=O)NC(c1cn2nc(CC3C[C@@H](C(F)(F)F)CNC3=O)ccc2n1)C1CCC2CC2CC1 (single isomer, unassigned) [Compound 175]
Response given: 0.1 to 1 µM

Challenge: Next entry: CCn1nccc1C(=O)NC(c1cn2nc(CC3C(=O)NCC4CC43)ccc2n1)C1CCC(C)CC1 (single isomer, unassigned) [Compound 47]
Response given: > 1 µM

Challenge: Please give the result for CCn1nccc1C(=O)N[C@H](c1cn2nc(CC3C(=O)NCC3C(F)(F)F)ccc2n1)C(C1CC1)C1CC1 (single isomer, unassigned) [Compound 44] too.
Response given: 0.1 to 1 µM

Challenge: Continue with O=C(N[C@H](c1cn2nc(CC3C[C@@H](C(F)(F)F)CNC3=O)ccc2n1)[C@@H]1CCCC(F)(F)C1)c1nonc1C1CC1 (stereo partly drawn)
Response given: < 0.1 µM

Challenge: Same again, this time with CCn1nccc1C(=O)N[C@H](c1cn2nc(CC3C[C@@H](C(F)(F)F)CNC3=O)ccc2n1)C1CCC(F)(F)CC1 (stereo partly drawn) [Compound 193]
Response given: > 1 µM

Challenge: Thanks! And CCn1nccc1C(=O)N[C@H](c1cn2nc(C(C)C3C[C@@H](C(F)(F)F)CNC3=O)ccc2n1)C(C1CC1)C1CC1 (single isomer, unassigned) [Compound 57] ?
Response given: > 1 µM

Challenge: Next record, please: O=C(N[C@H](c1cn2nc(CC3C[C@@H](C(F)(F)F)CNC3=O)ccc2n1)C1CCC(F)(F)CC1)c1ccnn1C1CC1 (stereo partly drawn)
Response given: 0.1 to 1 µM

Challenge: Entry CC[C@@H](c1ccc(F)cc1)[C@H](NC(=O)c1ccnn1CC)c1cn2nc(C[C@H]3C[C@@H](C(F)(F)F)NC3=O)ccc2n1 please
Response given: 0.1 to 1 µM

Challenge: What do you have for O=C(N[C@H](c1cn2nc(CC3C[C@@H](C(F)(F)F)CNC3=O)ccc2n1)C1CCC(F)(F)CC1)c1conc1C1CC(F)(F)C1 (stereo partly drawn) ?
Response given: 0.1 to 1 µM

Challenge: // same read-out, input: CCn1nccc1C(=O)N[C@H](c1cn2nc(CC3C[C@@H](C(F)(F)F)CNC3=O)c(C(F)(F)F)cc2n1)[C@H]1CC[C@H](C)CC1 (single isomer, unassigned) [Compound 79]
Response given: > 1 µM

Challenge: Thanks! And CCn1nccc1C(=O)N[C@H](c1cn2nc(CC3CC(C4CC4)CNC3=O)ccc2n1)C1CCC(F)(F)CC1 (single isomer, unassigned) [Compound 70] ?
Response given: 0.1 to 1 µM

###

For each entry below, report its pIC50 value.
systemUnderTest: IL-17A/A (Homo sapiens)
procedureDetails: IL-17A/A HEK-Blue cell assay
conditionParameters: HEK-Blue IL-17A reporter cell line (HEK 293), IL-17A/A stimulation, 20 hours incubation, SEAP read at A630
pIC50: −log10 of the molar value.

Challenge: Which value of pIC50 has been reported for O=C(N[C@H](c1cn2nc(CC3C[C@@H](C(F)(F)F)CNC3=O)ccc2n1)C1CCC(F)(F)CC1)c1conc1C1CC1 (stereo partly drawn) in the records?
Response given: 6.00 to 7.00

Challenge: Now the same for CCn1nccc1C(=O)N[C@H](c1cn2nc(CC3C[C@@H](C(F)(F)F)NC3=O)ccc2n1)C1CCCCCC1 (single isomer, unassigned) [Compound 6]
Response given: < 6.00

Challenge: Next compound up: CCn1nccc1C(=O)N[C@H](c1cn2ncc(CC3C[C@@H](C(F)(F)F)CNC3=O)cc2n1)C(C1CC1)C1CC1 (single isomer, unassigned)
Response given: 6.00 to 7.00

###

systemUnderTest: IL-17A/A (Homo sapiens, UniProt Q16552)
Construct: purchased Genscript Z03228
Sequence (Q16552 24-155): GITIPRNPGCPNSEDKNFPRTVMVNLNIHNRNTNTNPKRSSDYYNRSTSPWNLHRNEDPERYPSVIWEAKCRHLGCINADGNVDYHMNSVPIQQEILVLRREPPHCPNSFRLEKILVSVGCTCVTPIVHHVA
procedureDetails: IL-17A/A HEK-Blue cell assay
Type: cell-based
conditionParameters: HEK-Blue IL-17A reporter cell line (HEK 293), IL-17A/A stimulation, 20 hours incubation, SEAP read at A630
Kindly supply the reported IC50 values for the records listed here.

Challenge: Need IC50 of CCn1nccc1C(=O)N[C@H](c1cn2nc(CC3CC(C(F)F)CNC3=O)ccc2n1)C(C1CC1)C1CC1 (mixture of isomers) [Compound 41] , thanks.
Response given: > 1000 nM

Challenge: // repeat for CC(C)n1nccc1C(=O)N[C@H](c1cn2nc(CC3C[C@@H](C(F)(F)F)CNC3=O)ccc2n1)[C@@H]1CCCC(F)(F)C1 (some centres unmarked) [Compound 149] and report
Response given: < 100 nM

Challenge: Another compound to look at: CCn1nccc1C(=O)N[C@H](c1cn2nc(CC3CC(C)(F)CNC3=O)ccc2n1)C(C1CC1)C1CC1 (mixture of isomers) [Compound 40]
Response given: > 1000 nM

Challenge: Also, CCn1nccc1C(=O)N[C@H](c1cn2nc(CC3C[C@@H](C(F)(F)F)CNC3=O)ccc2n1)[C@@H]1CCCC(F)(F)C1 (some centres unmarked) [Compound 143] please.
Response given: < 100 nM

Challenge: How about CCn1nccc1C(=O)N[C@H](c1cn2nc(CC3C[C@@H](C(F)(F)F)CNC3=O)ccc2n1)C1CC2(CCC2)C1 (single isomer, unassigned) [Compound 189] ?
Response given: 100 to 1000 nM

Challenge: Same thing, different compound: CCn1nccc1C(=O)N[C@H](c1cn2nc(CC3CC(F)(F)CNC3=O)c(N(C)C)cc2n1)C1CCC(F)(F)CC1 (single isomer, unassigned) [Compound 87]
Response given: < 100 nM

Challenge: What about this compound? O=C(N[C@H](c1cn2nc(CC3C[C@@H](C(F)(F)F)CNC3=O)ccc2n1)C1CCC(F)(F)CC1)c1conc1C(F)(F)C1CC1 (some centres unmarked) [Compound 125]
Response given: 100 to 1000 nM

Challenge: // repeat for CCn1nccc1C(=O)N[C@H](c1cn2nc(CC3C[C@@H](C(F)(F)F)NC3=O)ccc2n1)[C@H]1CC[C@H](C)CC1 (single isomer, unassigned) [Compound 16] and report
Response given: 100 to 1000 nM

Challenge: Consider next the compound CCn1nccc1C(=O)N[C@H](c1cn2ncc(CC3C[C@@H](C(F)(F)F)NC3=O)cc2n1)C(C1CC1)C1CC1 (single isomer, unassigned) [Compound 202] in the same way.
Response given: 100 to 1000 nM

Challenge: CCn1nccc1C(=O)N[C@H](c1cn2ncc(CC3C[C@@H](C(F)(F)F)NC3=O)cc2n1)[C@H]1CC[C@H](C)CC1 (single isomer, unassigned) [Compound 212] , same question.
Response given: < 100 nM

Challenge: Cool, now Cc1conc1C(=O)N[C@H](c1cn2nc(CC3C[C@@H](C(F)(F)F)CNC3=O)ccc2n1)C1CCC(F)(F)CC1 (some centres unmarked) [Compound 103]
Response given: 100 to 1000 nM

Challenge: And CCn1nccc1C(=O)N[C@H](c1cn2nc(CC3CCNC3=O)ccc2n1)C1CCCCCC1 (single isomer, unassigned) [Compound 4] ?
Response given: 100 to 1000 nM

Challenge: Next up: O=C1NC[C@H](C(F)(F)F)CC1Cc1ccc2nc([C@@H](NC(=O)C3CC34CC(F)(F)C4)C3CCC(F)(F)CC3)cn2n1 (single isomer, unassigned) [Compound 131]
Response given: 100 to 1000 nM

Challenge: Item: CCn1nccc1C(=O)N[C@H](c1cn2nc(CC3C[C@@H](C(F)(F)F)CNC3=O)ccc2n1)C1CCCCC1 (some centres unmarked) [Compound 191]
Response given: 100 to 1000 nM

Challenge: Next: CCn1nccc1C(=O)N[C@H](c1cn2ncc(CC3C[C@@H](C(F)(F)F)NC3=O)cc2n1)C1CCC(F)(F)CC1 (single isomer, unassigned) [Compound 204]
Response given: < 100 nM

Challenge: And for CCn1nccc1C(=O)N[C@H](c1cn2nc(CC3C[C@@H](C(F)(F)F)NC3=O)ccc2n1)C(C1CC1)C1CC1 (single isomer, unassigned) [Compound 8] ?
Response given: 100 to 1000 nM

Challenge: Same thing, different compound: CCn1nccc1C(=O)N[C@H](c1cn2nc(C[C@@H]3CCCNC3=O)ccc2n1)C(C1CC1)C1CC1 (single isomer, unassigned) [Compound 33]
Response given: 100 to 1000 nM

Challenge: Try CCn1nccc1C(=O)N[C@H](c1cn2nc(CC3CC(F)(F)CNC3=O)ccc2n1)C1CCCCCC1 (single isomer, unassigned) [Compound 9] next.
Response given: < 100 nM

Challenge: How about N#Cc1cc(C(=O)N[C@H](c2cn3nc(CC4C[C@@H](C(F)(F)F)CNC4=O)ccc3n2)C2CCC(F)(F)CC2)cs1 (some centres unmarked) [Compound 134] ?
Response given: 100 to 1000 nM

Challenge: Same question, O=C(N[C@H](c1cn2nc(CC3C[C@@H](C(F)(F)F)CNC3=O)ccc2n1)C1CCC(F)(F)CC1)c1conc1C1(C(F)(F)F)CC1 (some centres unmarked) [Compound 138] this time
Response given: 100 to 1000 nM

Challenge: And then CCn1nccc1C(=O)NC(c1cn2nc(CC3CC(F)(F)CNC3=O)ccc2n1)C1CCC(C)CC1 (single isomer, unassigned) [Compound 27] , what is it?
Response given: 100 to 1000 nM

Challenge: Try this compound too: O=C(N[C@H](c1cn2nc(CC3C[C@@H](C(F)(F)F)CNC3=O)ccc2n1)C1CCC(F)(F)CC1)c1nonc1C(F)(F)F (some centres unmarked) [Compound 113]
Response given: 100 to 1000 nM

Challenge: Subsequent entry: CCc1nonc1C(=O)N[C@H](c1cn2nc(C[C@H]3CCCNC3=O)ccc2n1)C(C1CC1)C1CC1 [Compound 35]
Response given: 100 to 1000 nM
